meta.source: the Human Domainome abundance scans (Beltran et al. 2025)

B1: Transitional endoplasmic reticulum ATPase, residues 26 to 106; numbered along this chain, P55072 (parent)
chain: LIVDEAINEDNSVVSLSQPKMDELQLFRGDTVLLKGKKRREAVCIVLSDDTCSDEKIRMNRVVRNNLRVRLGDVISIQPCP

Variants of: B1
Experiment: abundance fitness (aPCA) (normalised: wild type 0, dead -1); higher = more abundant; growth selection in yeast, the domain comes from the species named
Conditions: Homo sapiens
Please note: TRUE applies when abundance fitness is -0.3 or greater, and FALSE applies otherwise.

For orientation, consider the following solved cases.
>>> label("E23C")
"FALSE"
>>> label("L24C")
"FALSE"
>>> label("G36F")
"TRUE"
>>> label("D49T")
"TRUE"
>>> label("R61P")
"TRUE"
>>> label("K56S")
"TRUE"
>>> label("L24F")
"FALSE"
>>> label("V74W")
"TRUE"
>>> label("K38N")
"TRUE"
>>> label("R64N")
"FALSE"

Query block: Determine whether this variant has abundance fitness no lower than -0.3: D22Y
Result block: TRUE
